- Tested on: Norovirus
- assay_notes: Antiviral activity against Norovirus infected in human HG23 cells
- Format: functional
- details: read-out: ED50 (the source's name)
# EC50 per entry

>  <compound>
CC(C)C[C@H](NC(=O)OCc1ccccc1)C(=O)N[C@@H](CC1CCNC1=O)C(=O)C(=O)NCc1ccccc1 (some centres undefined)

>  <EC50>
1.8 µM

$$$$
>  <compound>
CC(C)C[C@H](NC(=O)OCc1ccccc1)C(=O)N[C@@H](CC1CCNC1=O)C(O)C(=O)NC(C)(C)C (some centres undefined)

>  <EC50>
> 20 µM

$$$$
>  <compound>
CC(C)C[C@H](NC(=O)OCc1ccccc1)C(=O)N[C@@H](CC1CCNC1=O)C(O)C(=O)NC1CCCCC1 (some centres undefined)

>  <EC50>
> 20 µM

$$$$
>  <compound>
CCCCNC(=O)C(O)[C@H](CC1CCNC1=O)NC(=O)[C@H](CC(C)C)NC(=O)OCc1ccccc1 (some centres undefined)

>  <EC50>
> 20 µM

$$$$

====

# EC50 per entry
- Test system: Norovirus
- assay_notes: Antiviral activity against Norovirus infected in human HG23 cells
- Assay type: functional
- details: read-out: ED50 (the source's name)

>  <compound>
CC(C)C[C@H](NC(=O)OCc1ccccc1)C(=O)N[C@@H](CC1CCNC1=O)C(=O)C(=O)NC(C)C (some centres undefined)

>  <EC50>
2800 nM

$$$$
>  <compound>
CC(C)C[C@H](NC(=O)OCc1ccccc1)C(=O)N[C@@H](CC1CCNC1=O)C(=O)c1nccs1 (some centres undefined)

>  <EC50>
4200 nM

$$$$
>  <compound>
CC(C)C[C@H](NC(=O)OCc1ccccc1)C(=O)N[C@@H](CC1CCNC1=O)C(=O)C(=O)NC1CC1 (some centres undefined)

>  <EC50>
1100 nM

$$$$
>  <compound>
CC(C)C[C@H](NC(=O)OCc1ccccc1)C(=O)N[C@@H](CC1CCNC1=O)C(=O)C(=O)NC(C)(C)C (some centres undefined)

>  <EC50>
1100 nM

$$$$

====

- System: Norovirus
- assay_notes: Antiviral activity against Norovirus infected in human HG23 cells
- Format: functional
- details: read-out: ED50 (the source's name)

>  <compound>
CC(C)C[C@H](NC(=O)OCc1ccccc1)C(=O)N[C@@H](CC1CCNC1=O)C(O)C(=O)NCc1ccccc1 (some centres undefined)

>  <EC50>
> 20 µM

$$$$
>  <compound>
CC(C)C[C@H](NC(=O)OCc1ccccc1)C(=O)N[C@@H](CC1CCNC1=O)C(O)c1ncco1 (some centres undefined)

>  <EC50>
> 20 µM

$$$$
>  <compound>
CCOC(=O)CNC(=O)C(O)[C@H](CC1CCNC1=O)NC(=O)[C@H](CC(C)C)NC(=O)OCc1ccccc1 (some centres undefined)

>  <EC50>
> 10 µM

$$$$
>  <compound>
CC(C)C[C@H](NC(=O)OCc1ccccc1)C(=O)N[C@@H](CC1CCNC1=O)C(O)C(=O)NC1CC1 (some centres undefined)

>  <EC50>
> 10 µM

$$$$
